# TARGET_OR_TEST_SYSTEM: human ether-à-go-go-related gene (hERG) potassium channel (human, UniProt Q12809)
# Sequence (Q12809 whole entry, looked up): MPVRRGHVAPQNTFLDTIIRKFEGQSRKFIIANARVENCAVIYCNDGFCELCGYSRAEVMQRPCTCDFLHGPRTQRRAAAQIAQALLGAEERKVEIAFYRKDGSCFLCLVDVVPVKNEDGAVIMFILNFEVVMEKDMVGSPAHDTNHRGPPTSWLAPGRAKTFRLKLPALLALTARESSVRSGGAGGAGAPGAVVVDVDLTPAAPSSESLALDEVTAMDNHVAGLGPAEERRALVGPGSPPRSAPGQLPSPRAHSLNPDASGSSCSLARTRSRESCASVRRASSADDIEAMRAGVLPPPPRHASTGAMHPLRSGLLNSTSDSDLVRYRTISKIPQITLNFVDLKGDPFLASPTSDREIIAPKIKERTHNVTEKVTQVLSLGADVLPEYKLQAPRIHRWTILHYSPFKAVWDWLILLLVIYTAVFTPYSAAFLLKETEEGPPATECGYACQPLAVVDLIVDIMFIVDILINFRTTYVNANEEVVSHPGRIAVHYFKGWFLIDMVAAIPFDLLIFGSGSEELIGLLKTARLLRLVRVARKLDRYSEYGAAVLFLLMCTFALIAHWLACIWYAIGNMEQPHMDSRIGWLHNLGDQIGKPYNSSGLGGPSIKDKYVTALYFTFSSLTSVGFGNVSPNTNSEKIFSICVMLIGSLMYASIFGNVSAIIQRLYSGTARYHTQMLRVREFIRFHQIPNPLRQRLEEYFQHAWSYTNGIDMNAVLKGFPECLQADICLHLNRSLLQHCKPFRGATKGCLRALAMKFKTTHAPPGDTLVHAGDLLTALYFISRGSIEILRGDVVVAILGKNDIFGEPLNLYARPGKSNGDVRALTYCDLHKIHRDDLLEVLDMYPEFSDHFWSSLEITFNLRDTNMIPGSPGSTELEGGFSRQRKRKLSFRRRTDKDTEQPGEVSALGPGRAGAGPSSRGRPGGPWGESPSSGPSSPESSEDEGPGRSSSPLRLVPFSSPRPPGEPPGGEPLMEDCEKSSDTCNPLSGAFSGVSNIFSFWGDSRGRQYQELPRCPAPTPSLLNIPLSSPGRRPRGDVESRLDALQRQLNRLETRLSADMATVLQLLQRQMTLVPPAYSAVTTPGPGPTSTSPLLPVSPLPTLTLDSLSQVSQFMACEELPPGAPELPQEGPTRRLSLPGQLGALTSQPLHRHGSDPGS
# ASSAY_REMARKS: primary screen, population patch clamp on CHO cells stably expressing hERG; higher = less effect of the substance
Out of some 310,000 compounds screened, about 2,200 (0.71%) showed an effect of 50% or more. Effects have a minus sign here. Many of the other results were omitted from the sample, so strong results are more common in it than they were.
Below, each entry is listed alongside its reported hERG current change (%, negative = inhibition) at 1uM.
ASSAY_ENDPOINT: hERG current change (%, negative = inhibition) at 1uM (%)

COMPOUND | TARGET_OR_TEST_SYSTEM | VALUE_UNIT | OBSERVED_VALUE
O=C(NCCCn1ccnc1)c1ccc(N2CCCCC2)c([N+](=O)[O-])c1 | human ether-à-go-go-related gene (hERG) potassium channel (human, UniProt Q12809) | % | -54.1
COc1ccc2nc(C)cc(NCCN3CCOCC3)c2c1 | human ether-à-go-go-related gene (hERG) potassium channel (human, UniProt Q12809) | % | 12.3
Cc1cccnc1NC(=S)NCCc1ccccc1 | human ether-à-go-go-related gene (hERG) potassium channel (human, UniProt Q12809) | % | -3.36
Clc1ccc(-c2nnc(NC3=NCCCCC3)o2)cc1 | human ether-à-go-go-related gene (hERG) potassium channel (human, UniProt Q12809) | % | 10
COc1ccc(C(=O)NCCCn2ccnc2)cc1[N+](=O)[O-] | human ether-à-go-go-related gene (hERG) potassium channel (human, UniProt Q12809) | % | 3.98
O=C(c1cccc(C(F)(F)F)c1)N1CCN(S(=O)(=O)c2ccc(Cl)s2)CC1 | human ether-à-go-go-related gene (hERG) potassium channel (human, UniProt Q12809) | % | 3.68
Cc1cccc(OCCSCc2nc3ccccc3[nH]2)c1 | human ether-à-go-go-related gene (hERG) potassium channel (human, UniProt Q12809) | % | 12.1
CC(C)Oc1ccc(N2CC(C(=O)Nc3ccc4c(c3)OCO4)CC2=O)cc1 (stereo not shown) | human ether-à-go-go-related gene (hERG) potassium channel (human, UniProt Q12809) | % | 5.88
O=C(c1ccccc1Br)N1CCCC(c2nc(-c3cccs3)no2)C1 (stereo not shown) | human ether-à-go-go-related gene (hERG) potassium channel (human, UniProt Q12809) | % | 13.2
Cc1cc(NCCCN2CCOCC2)n2c(nc3ccccc32)c1C#N | human ether-à-go-go-related gene (hERG) potassium channel (human, UniProt Q12809) | % | -0.298
Cc1cc(C)n(Cc2ccccc2)c(=O)c1S(=O)(=O)c1ccccc1 | human ether-à-go-go-related gene (hERG) potassium channel (human, UniProt Q12809) | % | 3.34
COc1cc(OC)cc(C(=O)NCC2CCCN(Cc3ccc(SC)cc3)C2)c1 (stereo not shown) | human ether-à-go-go-related gene (hERG) potassium channel (human, UniProt Q12809) | % | -34.6
Cl.O=C(NCCCn1ccnc1)c1ccc(N2CCCCCC2)c([N+](=O)[O-])c1 | human ether-à-go-go-related gene (hERG) potassium channel (human, UniProt Q12809) | % | -51.6
Cc1nc(NCCN2CCOCC2)c2oc3ccccc3c2n1.Cl | human ether-à-go-go-related gene (hERG) potassium channel (human, UniProt Q12809) | % | -8.71
O=[N+]([O-])c1ccc(-c2nc(Nc3ccc(O)cc3)c3ccccc3n2)cc1 | human ether-à-go-go-related gene (hERG) potassium channel (human, UniProt Q12809) | % | 13
CCOc1ccc(CCNC(=O)CS(=O)(=O)Cc2nc(-c3ccc(OC)cc3)oc2C)cc1 | human ether-à-go-go-related gene (hERG) potassium channel (human, UniProt Q12809) | % | -0.117
Cc1ccc(S(=O)(=O)N2CCN(C(=O)CSc3ncc(C(F)(F)F)cc3Cl)CC2)cc1 | human ether-à-go-go-related gene (hERG) potassium channel (human, UniProt Q12809) | % | 11.1
COCCCNC(=O)c1ccc2nc(Cc3ccc(OC)cc3)oc2c1 | human ether-à-go-go-related gene (hERG) potassium channel (human, UniProt Q12809) | % | 10.8
Cc1cccc(OCC(=O)Nc2ccc(C(=O)NCC(C)C)cc2)c1 | human ether-à-go-go-related gene (hERG) potassium channel (human, UniProt Q12809) | % | 4.42
CCC(=O)Nc1ccc(Oc2ccc3c(c2)C(=O)N(c2ccc(O)cc2)C3=O)cc1 | human ether-à-go-go-related gene (hERG) potassium channel (human, UniProt Q12809) | % | 13.7
NC(=O)CC(NC(=O)Cc1cccc2ccccc12)c1ccc(NCCCN2CCCC2=O)c([N+](=O)[O-])c1 (stereo not shown) | human ether-à-go-go-related gene (hERG) potassium channel (human, UniProt Q12809) | % | 8.49
Cc1ccc(OCCOCCn2cnc3ccccc3c2=O)c([N+](=O)[O-])c1.O=C(O)C(=O)O | human ether-à-go-go-related gene (hERG) potassium channel (human, UniProt Q12809) | % | -6.31
CC1(C(=O)NC(=S)N(Cc2ccccc2)c2ccccn2)CC1(Cl)Cl (stereo not shown) | human ether-à-go-go-related gene (hERG) potassium channel (human, UniProt Q12809) | % | 12.4
NS(=O)(=O)c1ccc(NCCCn2ccnc2)c([N+](=O)[O-])c1 | human ether-à-go-go-related gene (hERG) potassium channel (human, UniProt Q12809) | % | 12
COc1ccc(CC(=O)NCC2CCCN(Cc3ccc(OC)cc3F)C2)cc1 (stereo not shown) | human ether-à-go-go-related gene (hERG) potassium channel (human, UniProt Q12809) | % | 6.22
Cc1cc(=O)n2nc(N3CCC(C(=O)NCC(C)c4ccccc4)CC3)sc2n1 (stereo not shown) | human ether-à-go-go-related gene (hERG) potassium channel (human, UniProt Q12809) | % | 11.7
CCCc1cc(NCCCN2CCOCC2)n2c(nc3ccccc32)c1C#N | human ether-à-go-go-related gene (hERG) potassium channel (human, UniProt Q12809) | % | -37
Cl.O=C(NCCCn1ccnc1)c1ccc(S(=O)(=O)N2CCCCCC2)cc1 | human ether-à-go-go-related gene (hERG) potassium channel (human, UniProt Q12809) | % | 9.74
Cc1cc(NCCN2CCOCC2)c2ccc3ccccc3c2n1 | human ether-à-go-go-related gene (hERG) potassium channel (human, UniProt Q12809) | % | -58.3
c1ccc2[nH]c(NCCCN3CCOCC3)nc2c1 | human ether-à-go-go-related gene (hERG) potassium channel (human, UniProt Q12809) | % | 14.6
CC(C)OC(=O)/C(=C\c1ccccc1)NC(=O)c1ccccc1 | human ether-à-go-go-related gene (hERG) potassium channel (human, UniProt Q12809) | % | 9.47
O=C(c1ccccc1)c1ccc(NCCCn2ccnc2)c([N+](=O)[O-])c1 | human ether-à-go-go-related gene (hERG) potassium channel (human, UniProt Q12809) | % | -65.4
Cc1ccc(-c2nc(CS(=O)(=O)CC(=O)NCCN3CCCC3)c(C)o2)cc1 | human ether-à-go-go-related gene (hERG) potassium channel (human, UniProt Q12809) | % | 7.76
CCc1cccc(NC(=O)C2CCCN(S(=O)(=O)c3ccc4[nH]c(=O)ccc4c3)C2)c1 (stereo not shown) | human ether-à-go-go-related gene (hERG) potassium channel (human, UniProt Q12809) | % | -0.861
CCCOc1cccc(C(=O)N(Cc2ccco2)C2CCS(=O)(=O)C2)c1 (stereo not shown) | human ether-à-go-go-related gene (hERG) potassium channel (human, UniProt Q12809) | % | 3.56
c1ccc2c(NCCCN3CCOCC3)c3ccccc3nc2c1 | human ether-à-go-go-related gene (hERG) potassium channel (human, UniProt Q12809) | % | -54.2
O=C(NCC1CCCN(Cc2cccc(OCCO)c2)C1)c1ccc(F)cc1 (stereo not shown) | human ether-à-go-go-related gene (hERG) potassium channel (human, UniProt Q12809) | % | 2.83
CCn1c2ccccc2c2cc(NC(=O)COC(=O)c3ccccc3O)ccc21 | human ether-à-go-go-related gene (hERG) potassium channel (human, UniProt Q12809) | % | 15
CCCc1cc(C(=O)O)c2ccccc2n1 | human ether-à-go-go-related gene (hERG) potassium channel (human, UniProt Q12809) | % | -0.521
COC(=O)C1=C(C)N(C)C(C)=C(C(=O)OC)C1c1ccc(F)c(Br)c1 | human ether-à-go-go-related gene (hERG) potassium channel (human, UniProt Q12809) | % | 6.36
